molecular target: FGFR1 protein (Homo sapiens (Human), UniProt P11362)
Sequence (P11362 22-822): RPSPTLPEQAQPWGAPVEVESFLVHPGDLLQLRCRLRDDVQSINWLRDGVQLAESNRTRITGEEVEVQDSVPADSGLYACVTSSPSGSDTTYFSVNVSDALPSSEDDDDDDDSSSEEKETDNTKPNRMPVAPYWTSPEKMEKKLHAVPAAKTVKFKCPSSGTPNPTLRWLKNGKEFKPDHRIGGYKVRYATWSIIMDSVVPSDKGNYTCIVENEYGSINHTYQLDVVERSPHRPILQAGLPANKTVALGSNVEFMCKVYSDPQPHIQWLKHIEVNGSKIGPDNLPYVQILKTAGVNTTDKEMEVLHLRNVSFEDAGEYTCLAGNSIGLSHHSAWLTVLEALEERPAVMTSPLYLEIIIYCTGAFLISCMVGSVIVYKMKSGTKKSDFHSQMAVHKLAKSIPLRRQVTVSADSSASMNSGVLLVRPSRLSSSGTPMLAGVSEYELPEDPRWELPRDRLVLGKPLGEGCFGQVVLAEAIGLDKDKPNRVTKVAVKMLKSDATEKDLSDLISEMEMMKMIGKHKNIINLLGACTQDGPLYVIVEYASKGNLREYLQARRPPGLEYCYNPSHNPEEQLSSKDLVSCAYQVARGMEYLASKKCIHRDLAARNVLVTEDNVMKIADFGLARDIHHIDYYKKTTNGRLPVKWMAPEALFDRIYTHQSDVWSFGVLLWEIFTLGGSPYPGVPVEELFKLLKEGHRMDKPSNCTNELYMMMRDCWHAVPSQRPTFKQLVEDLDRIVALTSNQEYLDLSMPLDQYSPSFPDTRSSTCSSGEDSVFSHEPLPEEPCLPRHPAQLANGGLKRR
Measurement Name: IC50 (nM)
The reply should be a number in nM, with the unit left off.

Observed IC50 on FGFR1 protein (Homo sapiens (Human), UniProt P11362) for CNC(=O)n1ccc2cc(Oc3ccnc(NC(=O)c4ccc(C5CCNCC5)cc4)c3)c(OC)cc21 , please. 9.8

----------
test system: human stomach cancer cell line SNU-16 xenograft; assay: Antitumor effect in SNU-16 subcutaneous xenograft model in mice; type: in vivo; details: 50 mg/kg, oral, once a day for 11 days, tumor volume last day
Measurement Name: T/C (%)
The reply should be a number in %, with the unit left off.

Please report the recorded T/C (%) for CNC(=O)n1ccc2cc(Oc3ccnc(NC(=O)c4ccc(C5CCN(C)CC5)cc4)c3)c(OCCOC)cc21 . 7

Please report the recorded T/C (%) for CNC(=O)n1ccc2cc(Oc3ccnc(NC(=O)c4ccc(CN5CCC(O)CC5)cc4)c3)c(OC)cc21 . 39

Please report the recorded T/C (%) for CCOCCOc1cc2c(ccn2C(=O)NC)cc1Oc1ccnc(NC(=O)c2ccc(C3CCN(CCO)CC3)cc2)c1 . 12

Please report the recorded T/C (%) for CCOCCOc1cc2c(ccn2C(=O)NC)cc1Oc1ccnc(NC(=O)c2ccc(C3CN(CC)C3)cc2)c1 . 27

Please report the recorded T/C (%) for CNC(=O)n1ccc2cc(Oc3ccnc(NC(=O)c4ccc(C5CCN(CCO)CC5)cc4)c3)c(OCCOC)cc21 . 18

FYI, the data here is from patent US8933099B2.
